tested on: rice; assay: Low temperature assay on rice seedlings; format: in vivo; conditions: 0.01 mg/l, 5 °C, 9 days

>  <Compound>
CC[C@@H](C(C)C)[C@@H](O)[C@H](O)[C@@H](C)[C@H]1CCC2C3COC(=O)C4C[C@H](O)[C@H](O)C[C@]4(C)C3CC[C@@]21C (stereo partly drawn)

>  <Height / cm>
8

$$$$
>  <Compound>
CC(C)[C@H](C)[C@@H](O)[C@H](O)[C@@H](C)[C@H]1CCC2C3CC(=O)C4C[C@H](O)CC[C@]4(C)C3CC[C@@]21C (stereo partly drawn)

>  <Height / cm>
7.8

$$$$
>  <Compound>
CC(C)C[C@@H](O)[C@H](O)[C@@H](C)[C@H]1CCC2C3CC(=O)C4C[C@H](O)[C@H](O)C[C@]4(C)C3CC[C@@]21C (stereo partly drawn)

>  <Height / cm>
8

$$$$
>  <Compound>
CC(C)(O)CC[C@@H](O)[C@](C)(O)[C@H]1CC[C@@]2(O)[C@@H]3CC(=O)[C@@H]4C[C@@H](O)[C@@H](O)C[C@]4(C)[C@H]3CC[C@]12C

>  <Height / cm>
8.1

$$$$
>  <Compound>
CC(C)[C@H](C)[C@@H](O)[C@H](O)[C@@H](C)[C@H]1CCC2C3COC(=O)C4C[C@H](O)[C@H](O)C[C@]4(C)C3CC[C@@]21C (stereo partly drawn)

>  <Height / cm>
8.2

$$$$
>  <Compound>
C=C(C(C)C)[C@@H](O)[C@H](O)[C@@H](C)[C@H]1CCC2C3COC(=O)C4C[C@H](O)[C@H](O)C[C@]4(C)C3CC[C@@]21C (stereo partly drawn)

>  <Height / cm>
7.8

$$$$

----------
Tested on: rice
Experiment: Low temperature assay on rice seedlings
Format: in vivo
Conditions: 0.1 mg/l, 1 °C, 9 days
Description: According to a low temperature assay, we measured parameters including plant height, number of leaf, area of leaf, number of tiller, weight of root at low temperature to completely determine effects of the natural brassinolide analogues on the resistance to low temperature of a plant. The natural brassinolide analogues, BR1, BR2, BR3, BR4, BR5 and BR6, used herein, were those prepared by the method of Example 1. […]

>  <Compound>
C=C(C(C)C)[C@@H](O)[C@H](O)[C@@H](C)[C@H]1CCC2C3COC(=O)C4C[C@H](O)[C@H](O)C[C@]4(C)C3CC[C@@]21C (stereo partly drawn)

>  <Weight of root [g]>
3.4

$$$$
>  <Compound>
CC[C@@H](C(C)C)[C@@H](O)[C@H](O)[C@@H](C)[C@H]1CCC2C3COC(=O)C4C[C@H](O)[C@H](O)C[C@]4(C)C3CC[C@@]21C (stereo partly drawn)

>  <Weight of root [g]>
3.4

$$$$
>  <Compound>
CC(C)[C@H](C)[C@@H](O)[C@H](O)[C@@H](C)[C@H]1CCC2C3CC(=O)C4C[C@H](O)CC[C@]4(C)C3CC[C@@]21C (stereo partly drawn)

>  <Weight of root [g]>
3.3

$$$$
>  <Compound>
CC(C)[C@H](C)[C@@H](O)[C@H](O)[C@@H](C)[C@H]1CCC2C3COC(=O)C4C[C@H](O)[C@H](O)C[C@]4(C)C3CC[C@@]21C (stereo partly drawn)

>  <Weight of root [g]>
3.4

$$$$
>  <Compound>
CC(C)C[C@@H](O)[C@H](O)[C@@H](C)[C@H]1CCC2C3CC(=O)C4C[C@H](O)[C@H](O)C[C@]4(C)C3CC[C@@]21C (stereo partly drawn)

>  <Weight of root [g]>
3.4

$$$$
>  <Compound>
CC(C)(O)CC[C@@H](O)[C@](C)(O)[C@H]1CC[C@@]2(O)[C@@H]3CC(=O)[C@@H]4C[C@@H](O)[C@@H](O)C[C@]4(C)[C@H]3CC[C@]12C

>  <Weight of root [g]>
3.4

$$$$

----------
test system: rice; assay: Low temperature assay on rice seedlings; assay type: in vivo; conditions: 0.0001 mg/l, 3 °C, 3 days

>  <Compound>
CC[C@@H](C(C)C)[C@@H](O)[C@H](O)[C@@H](C)[C@H]1CCC2C3COC(=O)C4C[C@H](O)[C@H](O)C[C@]4(C)C3CC[C@@]21C (stereo partly drawn)

>  <Weight of root>
2.5 g

$$$$
>  <Compound>
CC(C)[C@H](C)[C@@H](O)[C@H](O)[C@@H](C)[C@H]1CCC2C3CC(=O)C4C[C@H](O)CC[C@]4(C)C3CC[C@@]21C (stereo partly drawn)

>  <Weight of root>
2.5 g

$$$$
>  <Compound>
CC(C)[C@H](C)[C@@H](O)[C@H](O)[C@@H](C)[C@H]1CCC2C3COC(=O)C4C[C@H](O)[C@H](O)C[C@]4(C)C3CC[C@@]21C (stereo partly drawn)

>  <Weight of root>
2.5 g

$$$$
>  <Compound>
CC(C)(O)CC[C@@H](O)[C@](C)(O)[C@H]1CC[C@@]2(O)[C@@H]3CC(=O)[C@@H]4C[C@@H](O)[C@@H](O)C[C@]4(C)[C@H]3CC[C@]12C

>  <Weight of root>
2.5 g

$$$$
>  <Compound>
CC(C)C[C@@H](O)[C@H](O)[C@@H](C)[C@H]1CCC2C3CC(=O)C4C[C@H](O)[C@H](O)C[C@]4(C)C3CC[C@@]21C (stereo partly drawn)

>  <Weight of root>
2.5 g

$$$$
>  <Compound>
C=C(C(C)C)[C@@H](O)[C@H](O)[C@@H](C)[C@H]1CCC2C3COC(=O)C4C[C@H](O)[C@H](O)C[C@]4(C)C3CC[C@@]21C (stereo partly drawn)

>  <Weight of root>
2.5 g

$$$$

----------
test system: rice; assay: Low temperature assay on rice seedlings; format: in vivo; settings: 0.01 mg/l, 3 °C, 3 days
Measurement kind: Area of leaf (cm^2)

>  <Molecule>
CC(C)C[C@@H](O)[C@H](O)[C@@H](C)[C@H]1CCC2C3CC(=O)C4C[C@H](O)[C@H](O)C[C@]4(C)C3CC[C@@]21C (stereo partly drawn)

>  <Assay target>
rice

>  <Recorded value>
10.2

$$$$
>  <Molecule>
C=C(C(C)C)[C@@H](O)[C@H](O)[C@@H](C)[C@H]1CCC2C3COC(=O)C4C[C@H](O)[C@H](O)C[C@]4(C)C3CC[C@@]21C (stereo partly drawn)

>  <Assay target>
rice

>  <Recorded value>
10.2

$$$$
>  <Molecule>
CC[C@@H](C(C)C)[C@@H](O)[C@H](O)[C@@H](C)[C@H]1CCC2C3COC(=O)C4C[C@H](O)[C@H](O)C[C@]4(C)C3CC[C@@]21C (stereo partly drawn)

>  <Assay target>
rice

>  <Recorded value>
10.2

$$$$
>  <Molecule>
CC(C)(O)CC[C@@H](O)[C@](C)(O)[C@H]1CC[C@@]2(O)[C@@H]3CC(=O)[C@@H]4C[C@@H](O)[C@@H](O)C[C@]4(C)[C@H]3CC[C@]12C

>  <Assay target>
rice

>  <Recorded value>
10.4

$$$$
>  <Molecule>
CC(C)[C@H](C)[C@@H](O)[C@H](O)[C@@H](C)[C@H]1CCC2C3COC(=O)C4C[C@H](O)[C@H](O)C[C@]4(C)C3CC[C@@]21C (stereo partly drawn)

>  <Assay target>
rice

>  <Recorded value>
10.4

$$$$
>  <Molecule>
CC(C)[C@H](C)[C@@H](O)[C@H](O)[C@@H](C)[C@H]1CCC2C3CC(=O)C4C[C@H](O)CC[C@]4(C)C3CC[C@@]21C (stereo partly drawn)

>  <Assay target>
rice

>  <Recorded value>
10.2

$$$$

----------
system: rice; assay: Low temperature assay on rice seedlings; type: in vivo; details: 0.1 mg/l, 5 °C, 6 days

>  <Molecule>
C=C(C(C)C)[C@@H](O)[C@H](O)[C@@H](C)[C@H]1CCC2C3COC(=O)C4C[C@H](O)[C@H](O)C[C@]4(C)C3CC[C@@]21C (stereo partly drawn)

>  <Weight of root / g>
3.2

$$$$
>  <Molecule>
CC(C)C[C@@H](O)[C@H](O)[C@@H](C)[C@H]1CCC2C3CC(=O)C4C[C@H](O)[C@H](O)C[C@]4(C)C3CC[C@@]21C (stereo partly drawn)

>  <Weight of root / g>
3.2

$$$$
>  <Molecule>
CC[C@@H](C(C)C)[C@@H](O)[C@H](O)[C@@H](C)[C@H]1CCC2C3COC(=O)C4C[C@H](O)[C@H](O)C[C@]4(C)C3CC[C@@]21C (stereo partly drawn)

>  <Weight of root / g>
3.2

$$$$

----------
test system: rice; assay: Low temperature assay on rice seedlings; assay type: in vivo; details: 0.01 mg/l, 4 °C, 12 days

>  <Compound>
CC(C)(O)CC[C@@H](O)[C@](C)(O)[C@H]1CC[C@@]2(O)[C@@H]3CC(=O)[C@@H]4C[C@@H](O)[C@@H](O)C[C@]4(C)[C@H]3CC[C@]12C

>  <Height>
7.8 cm

$$$$
>  <Compound>
C=C(C(C)C)[C@@H](O)[C@H](O)[C@@H](C)[C@H]1CCC2C3COC(=O)C4C[C@H](O)[C@H](O)C[C@]4(C)C3CC[C@@]21C (stereo partly drawn)

>  <Height>
7.8 cm

$$$$
>  <Compound>
CC(C)[C@H](C)[C@@H](O)[C@H](O)[C@@H](C)[C@H]1CCC2C3CC(=O)C4C[C@H](O)CC[C@]4(C)C3CC[C@@]21C (stereo partly drawn)

>  <Height>
7.8 cm

$$$$
>  <Compound>
CC(C)C[C@@H](O)[C@H](O)[C@@H](C)[C@H]1CCC2C3CC(=O)C4C[C@H](O)[C@H](O)C[C@]4(C)C3CC[C@@]21C (stereo partly drawn)

>  <Height>
7.8 cm

$$$$
>  <Compound>
CC(C)[C@H](C)[C@@H](O)[C@H](O)[C@@H](C)[C@H]1CCC2C3COC(=O)C4C[C@H](O)[C@H](O)C[C@]4(C)C3CC[C@@]21C (stereo partly drawn)

>  <Height>
7.8 cm

$$$$
>  <Compound>
CC[C@@H](C(C)C)[C@@H](O)[C@H](O)[C@@H](C)[C@H]1CCC2C3COC(=O)C4C[C@H](O)[C@H](O)C[C@]4(C)C3CC[C@@]21C (stereo partly drawn)

>  <Height>
7.8 cm

$$$$
